Biological target: Tyrosine-protein phosphatase non-receptor type 1 (Homo sapiens)
Assay: Inhibition of PTP1B (unknown origin) at 10 micromol/L by DAS-ELISA
Details: dose 10.0 µmol/L
MEASURED PROPERTY: inhibition (%)

{"MOL": "CCOC(=O)[C@]1(C)CCC[C@@]2(C)[C@@H]3CC[C@@]4(C)C[C@]3(CC[C@@H]21)C[C@H]4OC(=O)c1ccc(O)cc1", "UNIT SYMBOL": "%", "inhibition": 79}
{"MOL": "CCCOC(=O)[C@]1(C)CCC[C@@]2(C)[C@@H]3CC[C@@]4(C)C[C@]3(CC[C@@H]21)CC4=O", "UNIT SYMBOL": "%", "inhibition": 61.9}
{"MOL": "Cc1ccc(COC(=O)[C@]2(C)CCC[C@@]3(C)[C@@H]4CC[C@@]5(C)C[C@]4(CC[C@@H]32)CC5=O)cc1", "UNIT SYMBOL": "%", "inhibition": 71.8}
{"MOL": "C[C@@]12CC[C@@H]3[C@@](CC[C@H]4[C@@]3(C)CCC[C@@]4(C)C(=O)OCc3ccccc3)(CC1=O)C2", "UNIT SYMBOL": "%", "inhibition": 52.4}
{"MOL": "C[C@@]12CC[C@@H]3[C@@](CC[C@H]4[C@@]3(C)CCC[C@@]4(C)C(=O)OCCN3CCNCC3)(CC1=O)C2", "UNIT SYMBOL": "%", "inhibition": 78.5}
{"MOL": "CC(=O)O[C@@H]1C[C@]23CC[C@H]4[C@@](C)(CCC[C@@]4(C)C(=O)O)[C@@H]2CC[C@@]1(C)C3", "UNIT SYMBOL": "%", "inhibition": 74}
{"MOL": "C[C@@]12CC[C@@H]3[C@@](CC[C@H]4[C@@]3(C)CCC[C@@]4(C)C(=O)OCc3ccc(Br)cc3)(CC1=O)C2", "UNIT SYMBOL": "%", "inhibition": 79.6}
{"MOL": "C[C@@]12CC[C@@H]3[C@@](CC[C@H]4[C@@]3(C)CCC[C@@]4(C)C(=O)O)(C/C1=N\\O)C2", "UNIT SYMBOL": "%", "inhibition": 61.9}
